# method_description: Acid dissociation constant was determined
# Type: ADME
Kindly state pKa for each of the entries shown.
One number for each entry.

>>> result_number("Cc1cc2nc(CC(N)C(=O)O)[nH]c2cc1C (centres undefined)")
5.4
>>> result_number("NC(Cc1nc2c([nH]1)CCCC2)C(=O)O (centres undefined)")
7.5
>>> result_number("NC(Cc1nc2cc(Cl)c(Cl)cc2[nH]1)C(=O)O (centres undefined)")
3.4

Moving on to another compound below.
q: pKa for NC(Cc1nc2ccccc2[nH]1)C(=O)O (centres undefined) ?
a: 4.7

###

# Species on record: Rattus norvegicus
# method_description: Antifertility effect in adult female rats by estrus suppression assay
# Type: functional
Kindly state Potency for each of the entries shown.
Answers are plain numbers.

Sample answers from the record:
>>> result_number("CC(C)C[C@H](NC(=O)[C@@H](Cc1nc2ccccc2s1)NC(=O)[C@H](Cc1ccc(O)cc1)NC(=O)[C@H](CO)NC(=O)[C@H](Cc1c[nH]c2ccccc12)NC(=O)[C@H](Cc1c[nH]cn1)NC(=O)[C@@H]1CCC(=O)N1)C(=O)N[C@@H](CCCN=C(N)N)C(=O)N1CCC[C@H]1C(=O)NCC(N)=O")
1
>>> result_number("CC(C)C[C@H](NC(=O)[C@@H](Cc1nc2cc(Cl)c(Cl)cc2[nH]1)NC(=O)[C@H](Cc1ccc(O)cc1)NC(=O)[C@H](CO)NC(=O)[C@H](Cc1c[nH]c2ccccc12)NC(=O)[C@H](Cc1c[nH]cn1)NC(=O)[C@@H]1CCC(=O)N1)C(=O)N[C@@H](CCCN=C(N)N)C(=O)N1CCC[C@H]1C(=O)NCC(N)=O")
0.9
>>> result_number("CCNC(=O)[C@@H]1CCCN1C(=O)[C@H](CCCN=C(N)N)NC(=O)[C@H](CC(C)C)NC(=O)[C@@H](Cc1nc2c(ccc3ccccc32)[nH]1)NC(=O)[C@H](Cc1ccc(O)cc1)NC(=O)[C@H](CO)NC(=O)[C@H](Cc1c[nH]c2ccccc12)NC(=O)[C@H](Cc1c[nH]cn1)NC(=O)[C@@H]1CCC(=O)N1")
0.8
>>> result_number("CCNC(=O)[C@@H]1CCCN1C(=O)[C@H](CCCN=C(N)N)NC(=O)[C@H](CC(C)C)NC(=O)[C@@H](Cc1nc2c([nH]1)CCCC2)NC(=O)[C@H](Cc1ccc(O)cc1)NC(=O)[C@H](CO)NC(=O)[C@H](Cc1c[nH]c2ccccc12)NC(=O)[C@H](Cc1c[nH]cn1)NC(=O)[C@@H]1CCC(=O)N1")
1.4
>>> result_number("CC(C)C[C@H](NC(=O)[C@@H](Cc1nc2c([nH]1)CCCC2)NC(=O)[C@H](Cc1ccc(O)cc1)NC(=O)[C@H](CO)NC(=O)[C@H](Cc1c[nH]c2ccccc12)NC(=O)[C@H](Cc1c[nH]cn1)NC(=O)[C@@H]1CCC(=O)N1)C(=O)N[C@@H](CCCN=C(N)N)C(=O)N1CCC[C@H]1C(=O)NCC(N)=O")
0.6
>>> result_number("CC(C)C[C@H](NC(=O)[C@@H](Cc1nc2ccccc2o1)NC(=O)[C@H](Cc1ccc(O)cc1)NC(=O)[C@H](CO)NC(=O)[C@H](Cc1c[nH]c2ccccc12)NC(=O)[C@H](Cc1c[nH]cn1)NC(=O)[C@@H]1CCC(=O)N1)C(=O)N[C@@H](CCCN=C(N)N)C(=O)N1CCC[C@H]1C(=O)NCC(N)=O")
1.2
>>> result_number("Cc1cc2nc(C[C@@H](NC(=O)[C@H](Cc3ccc(O)cc3)NC(=O)[C@H](CO)NC(=O)[C@H](Cc3c[nH]c4ccccc34)NC(=O)[C@H](Cc3c[nH]cn3)NC(=O)[C@@H]3CCC(=O)N3)C(=O)N[C@@H](CC(C)C)C(=O)N[C@@H](CCCN=C(N)N)C(=O)N3CCC[C@H]3C(=O)NCC(N)=O)[nH]c2cc1C")
1.6
>>> result_number("CCNC(=O)[C@@H]1CCCN1C(=O)[C@H](CCCN=C(N)N)NC(=O)[C@H](CC(C)C)NC(=O)[C@@H](Cc1nc2ccccc2[nH]1)NC(=O)[C@H](Cc1ccc(O)cc1)NC(=O)[C@H](CO)NC(=O)[C@H](Cc1c[nH]c2ccccc12)NC(=O)[C@H](Cc1c[nH]cn1)NC(=O)[C@@H]1CCC(=O)N1")
1

Moving on to another compound below.
q: Potency for CC(C)C[C@H](NC(=O)[C@@H](Cc1nc2ccccc2[nH]1)NC(=O)[C@H](Cc1ccc(O)cc1)NC(=O)[C@H](CO)NC(=O)[C@H](Cc1c[nH]c2ccccc12)NC(=O)[C@H](Cc1c[nH]cn1)NC(=O)[C@@H]1CCC(=O)N1)C(=O)N[C@@H](CCCN=C(N)N)C(=O)N1CCC[C@H]1C(=O)NCC(N)=O ?
a: 0.3
